Entry source: the supplement of paper PMC6555819

Listed below: PBM binding z-score values for each entry.
# System: PPARa:RXRa (NR concentration 270 nM, RXRa partner concentration 90 nM)
# procedure text: PBM binding z-score (relative to random genomic background probes); higher = stronger binding; sequences stand for … in GC…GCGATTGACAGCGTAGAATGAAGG
measured endpoint: PBM binding z-score

| sequence entry | measured endpoint | obs value |
| --- | --- | --- |
| ATACCAAGGTGATCGTGAGGTCGTTGATACTAAC | PBM binding z-score | 1.67 |
| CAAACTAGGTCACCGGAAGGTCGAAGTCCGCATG | PBM binding z-score | 5.6 |
| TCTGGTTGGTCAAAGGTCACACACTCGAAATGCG | PBM binding z-score | 6.43 |
| TATACAGGGTCAAAGGCCAGATTACGAATGTCGA | PBM binding z-score | 6.15 |
| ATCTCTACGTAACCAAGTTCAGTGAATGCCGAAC | PBM binding z-score | 0.166 |
| AATAGAGGGTCATCGTAGGCCAGAGTACGCACAG | PBM binding z-score | 5.5 |
| GCGACTGGGCCAAAGCAGGTTACCATAAGGTTGG | PBM binding z-score | 0.468 |
| TGTCAAAGTTCAAAGGTAAAGTAAGTATCCACAC | PBM binding z-score | 5.87 |
| CCTTACGGGTCACTCCAGGTTATCGCATCGGAGT | PBM binding z-score | 4.26 |

* * *

# Test system: PPARg:RXRa (NR concentration 180 nM, RXRa partner concentration 90 nM)
# procedure text: PBM binding z-score (relative to random genomic background probes); higher = stronger binding; sequences stand for … in GC…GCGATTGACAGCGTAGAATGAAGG

| sequence entry | PBM binding z-score |
| --- | --- |
| TCGAGTAGGTTACCAATGGGGCGTTCAGCTTTCT | -0.0878 |
| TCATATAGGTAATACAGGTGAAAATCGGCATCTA | 1.78 |
| TGACTGAGGTTATAAGATCAGGGAACGTTGCAAA | 0.706 |
| CCTAGCAGGCCAGGGTAACTCAAGCATTTCGCTT | -0.112 |
| TTACCAAGGCGAAAGGTCGTTGATGCACGCCTTG | 5.49 |
| CCGAGTAGGTTGTGGGGCATTCAGGCAACGGTGA | 0.169 |
| CCTACTGGCCCACGAAAGGTCATTGATTCAGTGA | 0.749 |
| TCTATTAGTTGCAGGGCAACCGACGAGTCCGTTT | -0.219 |
| TCTTGTAGAACAGCAGGTTAAGAAAGCTGGCCAA | -0.134 |
| CCGACTGGGGCAGAAAGGTTACCATGCCATCCGG | 1.6 |
| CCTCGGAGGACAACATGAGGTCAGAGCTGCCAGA | 0.717 |
| AGAATGAGGTTATACGTAGATCGGGGAAGAAAGT | 1.84 |
| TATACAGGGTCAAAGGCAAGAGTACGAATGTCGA | 7.76 |
| TCGAGTAGGTTAGAGGCATTCAGAATGGCGTCGA | 1.22 |
| ATCGAAAGGTCGAAGATGAGTATACCCACCCGAA | 2.52 |
| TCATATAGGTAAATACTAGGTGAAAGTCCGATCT | 2.46 |
| TCTAGCAGGCCAGCGGGTCACTCAAGAGGTACGG | 0.601 |
| GATACAGGGTCAAGGCCATAGTACGCGTATTGAT | 6.08 |
